Tested on: L3.6pl
Assay: Cytotoxicity against human L3.6pl cells assessed as reduction in cell growth measured after 72 hrs by CellTiter96 one aqueous solution assay
Assay type: cell-based
Settings: human, l3.6pl, time 72 hrs
Respond with 1.0 for MTC values of 100 µM and above, 0.0 for values below.

# smiles code, group label
measured = [
    ("C1CNCCNCCN1", 1.0),
    ("CNCCCCNCCCCNCc1cc(CNCCCCNCCCCNC)cc(CNCCCCNCCCCNC)c1", 0.0),
    ("Cl.Cl.Cl.Cl.Cl.NCCCCNCCCCN1CCNCCNCC1", 1.0),
    ("C1CNCCCNCCCNC1", 0.0),
]

###

Assay: Inhibition of polyamine transport system in human L3.6pI cells assessed as reduction in [3H] spermine uptake by Lineweaver-Burk double reciprocal plot analysis
Assay type: cell-based
Settings: l3.6pl
pKi: −log10 of the molar value.

# smiles code, pKi
rows = [
    ("CNCCCCNCCCCNCc1cc(CNCCCCNCCCCNC)cc(CNCCCCNCCCCNC)c1", 6.05),
    ("Cl.Cl.Cl.Cl.Cl.NCCCCNCCCCN1CCNCCNCC1", 5.89),
]
